These measurements were taken from patent US20260274797A1.

Catalogue of pIC50 values
Target: integrin α4β7 (Homo sapiens, UniProt P13612+P26010)
Sequence (P13612 34-1032): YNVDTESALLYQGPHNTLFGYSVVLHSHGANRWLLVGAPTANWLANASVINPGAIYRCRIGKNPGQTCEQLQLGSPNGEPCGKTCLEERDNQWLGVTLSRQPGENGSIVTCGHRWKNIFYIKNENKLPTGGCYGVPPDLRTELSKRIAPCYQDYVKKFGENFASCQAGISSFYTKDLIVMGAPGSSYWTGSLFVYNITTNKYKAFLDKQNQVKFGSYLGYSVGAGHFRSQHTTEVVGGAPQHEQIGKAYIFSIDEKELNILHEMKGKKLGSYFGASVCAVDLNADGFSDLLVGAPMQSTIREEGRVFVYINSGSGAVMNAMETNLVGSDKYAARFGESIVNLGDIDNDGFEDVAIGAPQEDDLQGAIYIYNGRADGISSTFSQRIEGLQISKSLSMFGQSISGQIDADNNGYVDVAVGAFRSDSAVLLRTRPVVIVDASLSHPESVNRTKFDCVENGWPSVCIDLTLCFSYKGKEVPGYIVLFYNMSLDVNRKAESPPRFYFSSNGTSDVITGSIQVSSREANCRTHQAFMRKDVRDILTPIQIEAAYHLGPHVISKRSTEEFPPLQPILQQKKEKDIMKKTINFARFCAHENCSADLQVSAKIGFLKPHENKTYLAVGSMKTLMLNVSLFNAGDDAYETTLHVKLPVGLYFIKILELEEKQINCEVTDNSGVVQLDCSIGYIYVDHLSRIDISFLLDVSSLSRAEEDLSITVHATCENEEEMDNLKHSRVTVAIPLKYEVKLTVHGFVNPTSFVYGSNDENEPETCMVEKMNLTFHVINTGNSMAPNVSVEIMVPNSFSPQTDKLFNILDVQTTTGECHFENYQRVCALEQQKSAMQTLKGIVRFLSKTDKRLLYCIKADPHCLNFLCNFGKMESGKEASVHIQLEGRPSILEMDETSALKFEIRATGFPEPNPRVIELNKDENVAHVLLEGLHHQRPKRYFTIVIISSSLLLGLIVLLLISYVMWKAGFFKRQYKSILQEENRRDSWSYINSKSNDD
Sequence (P26010 20-798): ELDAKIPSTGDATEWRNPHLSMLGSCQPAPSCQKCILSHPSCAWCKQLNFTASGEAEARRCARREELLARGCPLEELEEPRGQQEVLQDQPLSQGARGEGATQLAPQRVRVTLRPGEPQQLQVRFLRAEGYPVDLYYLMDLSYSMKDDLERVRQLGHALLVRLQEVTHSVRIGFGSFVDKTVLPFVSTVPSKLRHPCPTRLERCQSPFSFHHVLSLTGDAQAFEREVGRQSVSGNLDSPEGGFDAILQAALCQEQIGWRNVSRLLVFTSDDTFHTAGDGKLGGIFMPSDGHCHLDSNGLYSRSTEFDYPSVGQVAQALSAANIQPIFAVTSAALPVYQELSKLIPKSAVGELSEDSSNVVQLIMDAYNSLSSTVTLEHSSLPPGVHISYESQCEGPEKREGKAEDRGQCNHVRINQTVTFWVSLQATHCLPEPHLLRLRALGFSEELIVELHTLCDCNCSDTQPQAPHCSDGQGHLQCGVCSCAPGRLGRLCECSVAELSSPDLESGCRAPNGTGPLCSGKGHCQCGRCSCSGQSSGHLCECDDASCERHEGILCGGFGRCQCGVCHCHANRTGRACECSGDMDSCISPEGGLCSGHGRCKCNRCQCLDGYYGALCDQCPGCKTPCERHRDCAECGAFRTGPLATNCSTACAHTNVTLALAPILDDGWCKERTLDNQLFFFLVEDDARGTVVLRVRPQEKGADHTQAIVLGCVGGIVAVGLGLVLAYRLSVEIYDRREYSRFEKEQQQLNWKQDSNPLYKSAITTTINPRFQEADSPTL
Experiment: Integrin α4β7 cell adhesion assay (RPMI8866 cells on MAdCAM-1)
Settings: RPMI8866 cells adhering to MAdCAM-1; α4β7-mediated cell adhesion; read-out: RPMI-8866 (α4β7)/MadCAM-1 IC50
pIC50: −log10 of the molar value. Structures can show the parent of a compound that is named as a salt.
valueKind: pIC50

[[record]]
molecule = "Cc1cc(F)cc(C)c1-c1cc(C(CC(=O)O)NC(=O)C(CC(C)C)n2cc(CC3CCN(C(C)C)CC3)c(C(F)(F)F)cc2=O)cc2c1CCC2 (centres unmarked) [Trifluoroacetate salt of compound 22-2]"
valuekind = "pIC50"
measuredresult = "> 9.30"

[[record]]
molecule = "Cc1ccc2[nH]ncc2c1-c1c(F)c(C(CC(=O)O)NC(=O)[C@H](CC(C)C)n2cc(CCN(C)C)c(C(F)(F)F)cc2=O)c(F)c2c1CCC2 (some centres unmarked)"
valuekind = "pIC50"
measuredresult = "> 9.30"

[[record]]
molecule = "COc1cc(C)c(-c2c(F)c(C(CC(=O)O)NC(=O)C(CC(C)C)n3cc(CCN(C)C)c(C(F)(F)F)cc3=O)c(F)c3c2CCC3)c(C)c1 (single isomer, unassigned) [Trifluoroacetate salt of compound 21-2]"
valuekind = "pIC50"
measuredresult = "> 9.00"

[[record]]
molecule = "Cc1cc(F)cc(C)c1-c1c(F)c(C(CC(=O)O)NC(=O)C(CC(C)C)n2cc(CCC3CCN(C)C3)c(C(F)(F)F)cc2=O)c(F)c2c1CCC2 (centres unmarked) [Trifluoroacetate salt of compound 26-2]"
valuekind = "pIC50"
measuredresult = "> 9.00"

[[record]]
molecule = "[2H]C([2H])([2H])Oc1cc(C)c(-c2c(F)c([C@H](CC(=O)O)NC(=O)C(CC(C)C)n3cc(CCN4CCC4)c(C(F)(F)F)cc3=O)c(F)c3c2CCC3)c(C)c1 (some centres unmarked)"
valuekind = "pIC50"
measuredresult = "> 9.30"


* * *

Catalogue of pIC50 values
Target: integrin α4β1 (Homo sapiens, UniProt P05556+P13612)
Construct: Jurkat cells were collected, washed twice using DPBS buffer; endogenous in cells
Sequence (P05556 21-798, one chain of several): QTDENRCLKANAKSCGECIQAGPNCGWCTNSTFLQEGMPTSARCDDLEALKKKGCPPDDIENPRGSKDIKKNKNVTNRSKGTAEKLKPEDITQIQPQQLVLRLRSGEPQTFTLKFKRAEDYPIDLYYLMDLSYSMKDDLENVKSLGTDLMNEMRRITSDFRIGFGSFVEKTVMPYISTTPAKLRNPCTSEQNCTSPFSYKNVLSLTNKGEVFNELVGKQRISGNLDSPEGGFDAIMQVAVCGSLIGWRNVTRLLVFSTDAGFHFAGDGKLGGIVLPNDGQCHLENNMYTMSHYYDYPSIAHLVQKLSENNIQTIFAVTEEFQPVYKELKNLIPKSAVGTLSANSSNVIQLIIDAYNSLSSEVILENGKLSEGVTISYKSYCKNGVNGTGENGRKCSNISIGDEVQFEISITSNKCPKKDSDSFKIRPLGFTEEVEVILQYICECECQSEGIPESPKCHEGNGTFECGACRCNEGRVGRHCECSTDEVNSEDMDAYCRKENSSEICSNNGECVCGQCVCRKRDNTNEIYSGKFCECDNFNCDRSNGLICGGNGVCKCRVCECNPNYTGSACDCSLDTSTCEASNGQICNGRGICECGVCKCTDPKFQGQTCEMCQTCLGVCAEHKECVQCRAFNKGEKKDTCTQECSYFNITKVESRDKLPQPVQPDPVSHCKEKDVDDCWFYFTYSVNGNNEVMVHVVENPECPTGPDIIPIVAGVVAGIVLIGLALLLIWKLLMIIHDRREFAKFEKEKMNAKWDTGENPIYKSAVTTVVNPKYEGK
Assay: Integrin α4β1-mediated cell adhesion assay (Jurkat cells on VCAM)
Details: Jurkat cells adhering to VCAM-1; α4β1-mediated cell adhesion
pIC50: −log10 of the molar value. Counter-ions that a name gives are not always drawn.
valueKind: pIC50

[[record]]
compound = "Cc1cc(F)cc(C)c1-c1cc(C(CC(=O)O)NC(=O)C(CC(C)C)n2cc(CCN(C)CC3CC3(F)F)c(C(F)(F)F)cc2=O)cc2c1CCC2 (single isomer, unassigned)"
measuredresult = "< 7.00"

[[record]]
compound = "Cc1cc(F)cc(C)c1-c1c(F)c(C(CC(=O)O)NC(=O)[C@H](CC(C)C)n2cc(CCC3CCCN3C)c(C(F)(F)F)cc2=O)c(F)c2c1CCC2 (single isomer, unassigned) [Trifluoroacetate salt of compound 28-2]"
measuredresult = "< 7.00"

[[record]]
compound = "[2H]C([2H])([2H])Oc1cc(C)c(-c2c(F)c([C@H](CC(=O)O)NC(=O)C(CC(C)C)n3cc(CCN4CCC4)c(C(F)(F)F)cc3=O)c(F)c3c2CCC3)c(C)c1 (some centres unmarked)"
measuredresult = "< 6.52"

[[record]]
compound = "COc1cc(C)c(-c2c(F)c(C(CC(=O)O)NC(=O)C(CC(C)C)n3cc(CCN(C)C)c(C(F)(F)F)cc3=O)c(F)c3c2CCC3)c(C)c1 (single isomer, unassigned) [Trifluoroacetate salt of compound 21-2]"
measuredresult = "< 6.30"

[[record]]
compound = "Cc1cc(F)cc(C)c1-c1cc(C(CC(=O)O)NC(=O)C(CC(C)C)n2cc(CC3CCN(C(C)C)CC3)c(C(F)(F)F)cc2=O)cc2c1CCC2 (centres unmarked) [Trifluoroacetate salt of compound 22-2]"
measuredresult = "< 7.00"

